Overview of reported normalized growth across a group of compounds:
assay: chemical genetic growth profiling, strain panel (AID 1159580);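 note: tested at 20 µM; growth read once vehicle control cultures reached saturation at 30 °C; 1 = growth at the plate median or of vehicle wells; lower values mean less growth of the strain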; conditions: S. cerevisiae deletion strains, growth OD, locus YGR052W, strain FMP48, active compounds read low
In all, about 5,500 compounds went through this assay and about 2,000 (36%) were called active. Roughly 18% stayed inconclusive and do not appear here. The list shows a part of the results.
Respond using a number only.

- compound: "COc1ccc(Oc2ccc([N+](=O)[O-])cc2C(=O)O/N=C(/N)c2ccc(C(F)(F)F)cc2)cc1"
  value_measured: 1.01
- compound: "O=C(NCc1ccc2c(c1)OCO2)c1cc2ccccc2s1"
  value_measured: 0.406
- compound: "COC(=O)c1cccc(NS(=O)(=O)c2ccc(Cl)c(Cl)c2)c1"
  value_measured: 1.01
- compound: "CCOC(=O)C(NC(=O)c1cccc(Cl)c1)(Nc1nc2ccccc2s1)C(F)(F)F (stereo not given)"
  value_measured: 0.943
- compound: "Cc1cc(Oc2c([N+](=O)[O-])cc(C(F)(F)F)cc2[N+](=O)[O-])c2c(Cl)ccc(C)c2n1"
  value_measured: 0.173
- compound: "S=C(NCCc1csc2ccccc12)Nc1ccc(Cl)cc1"
  value_measured: 0.795

query: // query normalized growth value for entry `CC(C)Sc1c(Cl)cccc1NC(=O)Nc1ccccc1`
result: 0.937

query: So what's the measured normalized growth for this one? `Cc1cc(C)c2cc(C(=O)NCCNc3ccc(C(F)(F)F)cn3)[nH]c2c1`
result: 0.249

query: Could you share which normalized growth value was measured for COc1cc(C2CC(=S)Nc3ccccc3S2)cc(OC)c1OC (stereo not given) ?
result: 1.02

query: Look up normalized growth: CC1SC(c2cccnc2)N(c2ccc(Cl)cc2)C1=O (stereo not given)
result: 0.374

query: Could you share which normalized growth value was measured for `O=[N+]([O-])c1cc(C(F)(F)F)cc([N+](=O)[O-])c1Oc1ccc(Cl)c(Cl)c1` ?
result: 0.12
